Numbers sourced from patent US20090208447A1.

target: HLA-A*0201 loaded with the Carcinoembryonic antigen (CEA)-derived … peptide (biotinylated on the C-terminal biotinylation tag); test: SPR (Biacore), Example 4
Entries and their Kd

A selection of reference data follows.
| binder | Kd |
| --- | --- |
| SEQ ID NO 52 (receptor) MGHLPKPTLWAEPGSVITQGSPVTLRCQGGQETQEYRLYREKKTAPWITRIPQELVKKGQFPIPSITWEHAGRYRCYYGSDTAGRSESSDPLELVVTGIYQAPTLSAQPSPVVNSGGNVTLQCDSQVAFDGFILCKEGEDEHPQCLNSQPHARGSSRAIFSVGPVSPGRRWWYRCYAYDSNSPYEWSLPSDLLELLVL | ≤ 1000 nM |
| SEQ ID NO 77 (receptor) MHLPKPTLWAEPGSVITMDQPVTLRCQGGQETQEYRLYREKKTAPWITRIPQELVKKGQFPIPSITWEHAGRYRCYYGSDTSQWSASSDPLELVVTGVYIKPTLSAQPSPVVNSGGNVTLQCDSQVAFDGFILCKEGEDEHPQCDNSQPHARGSSRAIFSVGPVSPSRRWWYRCYAYDSNSPYEWSLPSDLLELDVDG | ≤ 1000 nM |

Let us examine a further case.
In: For the binder SEQ ID NO 49 (receptor) MGHLPKPTLWAEPGSVITQGSPVTLRCQGGQETQEYRLYREKKTAPQITRIPQELVKKGQFPIPSITWEHAGRYRCYYGSDTAGRSESSDPLELVVTGVYVAPTLSAQPSPVVNSGGNVTLQCDSQVAFDGFILCKEGEDEHPQCLNSQPHARGSSRAIFSVGPVSPGRRWWYRCYAYDSNSPYEWSLPSDLLELLVL , give its reported Kd.
Out: ≤ 1000 nM
